Test: Mean plasma concentration at 4h in Swiss albino male mice at […] per compound (administered orally in a mixture of 5 compounds to 3 mice) assessed by LCMS/MS.
Format: ADME, organism-based
Conditions: mouse, po
readoutType: concentration at 4 h (ng/mL)

Example compounds with recorded concentration at 4 h:
The recorded concentration at 4 h for CC(C)c1cc(-c2cn3c(-c4ccc5[nH]ncc5c4F)c(C(F)(F)F)nc3cn2)ccc1F is 52.3

Form: compound = CC(C)c1nc2cnc(-c3cccc(C(F)(F)F)c3)cn2c1-c1ccc2[nH]ncc2c1F ; concentration at 4 h = 194

1: CC1(c2nc3cnc(-c4ccc(F)c(C(F)(F)F)c4)cn3c2-c2c(F)cc(O)cc2F)CC1
2: CC(C)c1nc2cnc(-c3ccc(F)c(S(F)(F)(F)(F)F)c3)cn2c1-c1ccc2[nH]ncc2c1F
3: CCc1nn2cnc(-c3ccc(F)c(C(F)(F)F)c3)cc2c1-c1c(F)cc(O)cc1F
Qu. Order each entry by recorded concentration at 4 h, climbing from the minimum. Arrange the labels as the request states and list them.
Ans. 3, 1, 2
(3: 9.68 ng/mL, 1: 76 ng/mL, 2: 381 ng/mL)
